Entries annotated with measured switch fluorescence ratio
Tested on: ATP;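 further: ATP exposure 15 min at 22 °C before imaging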
Assay: switch fluorescence ratio, 500 uM ATP over buffer (Cy3 cluster intensity, sum of 5 cycles each) (fold (ratio)); higher = stronger signal-on switching upon ATP binding; sequences stand for … in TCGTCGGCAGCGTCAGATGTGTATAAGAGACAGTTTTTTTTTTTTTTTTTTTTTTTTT…TC
Conditions: aptamer strand: ATP DNA aptamer (quencher-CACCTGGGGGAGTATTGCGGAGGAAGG + anchor), 100 nM annealed; ATP concentration: 500 uM
reported endpoint: switch fluorescence ratio

GTAATTTCGT | 0.997
CGGTTAGGGA | 0.965
TTTGAACGTT | 1
TTGAAGGGGC | 0.997
AGATCGCTTG | 0.975
CAGGGTGAAT | 0.991
TCGAGGGGGT | 0.986
TGCGTTTCGA | 1.03
TTAAGTTGGT | 0.997
CCATCAAATA | 1.01
AGTGAGTAAC | 0.981
TTAAAAGCAG | 1.02
ATTCTGAGGC | 1.03
TTTACCCGGC | 1.1
AGCCTGGGGA | 1

* * *

Entries annotated with measured switch fluorescence ratio
Test system: ATP;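 further: ATP exposure 15 min at 22 °C before imaging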
Assay: switch fluorescence ratio, 500 uM ATP over buffer (Cy3 cluster intensity, sum of 5 cycles each) (fold (ratio)); higher = stronger signal-on switching upon ATP binding; sequences stand for … in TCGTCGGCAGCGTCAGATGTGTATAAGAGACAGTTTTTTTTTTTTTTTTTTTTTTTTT…TC
Conditions: aptamer strand: ATP DNA aptamer (quencher-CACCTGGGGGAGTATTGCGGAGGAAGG + anchor), 100 nM annealed; ATP concentration: 500 uM
reported endpoint: switch fluorescence ratio

CTGGACCTTC | 1.66
ATTTGGTAAA | 0.986
GGTTTGATGC | 0.962
AAAAATAGTG | 1.04
TACTTTGGTT | 0.975
CGGCTCCTCA | 1.08
CTGAGAGATG | 0.991
CAGGGGTACG | 0.991
TGCTAGGGAA | 0.975
CAGGCGTTAG | 1
GGATTTTTGG | 0.989
GGAAATCAGG | 0.989
ATTGACATAT | 1.05
TCCAAGTCCC | 1.02
TATGTAGATT | 1.02
GGGCAACTTT | 0.997
AACGGTGGGG | 0.992
GAACCTGGAT | 1.16
GGTTGAGGTC | 1
TAGAGGAGTT | 0.951
GGGGAAGTAG | 0.994
GGGTTAAGTG | 1.02
AGACTGGGTT | 0.971
CGTGGGGCAC | 1.01
GGGCTCATCA | 0.998
ATCAAACGGG | 1.02
AAATGGCATT | 1
ATATCGGGGG | 1.01
TAACTATTT | 1
GCAGGACATA | 1.06
CGTTGTCATT | 0.972
GGGGTCAGGA | 1.03
CGTTGTACTT | 1.01
TTTCAAAAAC | 1.03
CACGAGAAGT | 1.04
CGAGAAGAGT | 1.01
TATTTGCTTT | 1.02
CAATTGTACT | 0.994
TTTGGTCAGA | 0.973
TTATAGATGT | 0.992
GGGAGAGGCG | 0.984
TTATATTAG | 0.982
ACTTGGGCGT | 1.03
CGGCCCGTAG | 1.02
TTGCGTAAGG | 1.06
ATTGGACGTT | 0.988
TGGGAGTTTC | 0.978
TCTCTGTTGA | 1.01
AAGGTTCTTT | 0.988
AGAGGAGGGA | 0.974
TACTCGCCGT | 1.05
GATTTAGGAC | 0.967
CGTTTTGATA | 1.01
GGGGGCGAAT | 1.01
TCCCATTTGG | 1.03
GTGGGTCGTA | 0.985
GCAGTTTGTT | 0.978
AGGAATTTGT | 1.04
AAAAAGGGAA | 0.986
TCTGTTCTTG | 0.987
TTTTTGAATC | 0.983
AAATTTGTTG | 0.992
AAGGTTGATG | 0.982
CATTGACCGC | 1.09
GTTTGCGACT | 0.998
AACGTGCGTG | 0.997
AGTTGGGATC | 1.04
TGTTGGGTGC | 0.996
AAACAGCCGG | 1.03
GAAAAGGTTC | 1.04
ACGGACGCAA | 3.95
ACTCTGGGGT | 1.03
GCTCCTCACA | 1.67
ATATAGTCTG | 0.989
TACGTAGGCA | 1.07
TATGTCTTTA | 1
GGGGTTTATA | 0.997
TAAGAAGATT | 0.986
TTTTGACGTG | 0.991
